test_description: chemical genetic growth profiling, strain panel (AID 1159580);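 note: tested at 20 µM; growth read once vehicle control cultures reached saturation at 30 °C; lower values mean less growth of the strain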
applied_conditions: S. cerevisiae deletion strains, growth OD, locus YDR195W, strain ref2
Screen size: about 5,500 compounds; about 2,000 (36%) were called active. About 18% were inconclusive and are not listed. Cut-off read from the data, not from the text of the source: active = normalized growth mostly below about 0.91 (no sharp cut-off); inconclusive = no clear call, values can overlap the other calls; inactive = mostly above about 0.92. The list shows a part of the results.
Tick one outcome: active, inactive

CC1=C(O)C(=O)C=C2C1=CC=C1[C@@]2(C)CC[C@@]2(C)[C@@H]3C[C@](C)(C(=O)O)CC[C@]3(C)CC[C@]12C = active
COc1cc(O)cc(OC)c1OC = inactive
COc1cc2c(cc1OC)[C@@]13CCN4CC5=CCOC6CC(=O)N2C1[C@H]6[C@H]5C[C@H]43 (some centres not stated) = inactive
CC(=O)Oc1cc2c(c(C)c1OC(C)=O)CC1OC13C2(C)CCC1(C)C2CC(C)(C(=O)O)CCC2(C)CCC13C (configuration not stated) = inactive
NCCNCCNCCN = inactive

Challenge: Hi, sorry to bother you, what did the test record for `CCC1(CC)C(=O)C=CNC1=O` ?
Response given: inactive

Challenge: Hi, sorry to bother you, what did the test record for `COC(=O)[C@]1(C)CC[C@]2(C)CC[C@]3(C)C4=CC=C5C(=CC(=O)C(O)=C5C)[C@]4(C)CC[C@@]3(C)[C@@H]2C1` ?
Response given: active

The origin of these recorded values is PubChem BioAssay AID1159580.
